System: H3255
assay-explanation: relative viability (nuclei count vs DMSO), 5 days (fraction); higher = more cells survive
stated-conditions: first compound 158.11 µM
Please provide measured relative viability for the entries that follow.
Returns: the value as a bare number; no unit string appended.

Task: Which relative viability value is on record for O=C(O)CCCCC(CCSCc1ccccc1)SCc1ccccc1 (centres undefined) [CPI-613] + C[C@@H](Oc1cc(-c2cnn(C3CCNCC3)c2)cnc1N)c1c(Cl)ccc(F)c1Cl [Crizotinib] (partner 1 µM) ?
Result: 0.831

Task: // relative viability lookup, key: O=C(O)CCCCC(CCSCc1ccccc1)SCc1ccccc1 (centres undefined) [CPI-613] + Nc1nc2[nH]cc(CCc3ccc(C(=O)N[C@@H](CCC(=O)O)C(=O)O)cc3)c2c(=O)[nH]1 [Pemetrexed] (partner 0.2 µM)
Result: 0.534

Task: I am curious: what relative viability value has been reported for O=C(O)CCCCC(CCSCc1ccccc1)SCc1ccccc1 (centres undefined) [CPI-613] + CS(=O)(=O)CCNCc1ccc(-c2ccc3ncnc(Nc4ccc(OCc5cccc(F)c5)c(Cl)c4)c3c2)o1 [Lapatinib] (partner 2 µM) ?
Result: 0.256

Task: Dear colleague, I am looking for the recorded relative viability of the following compound: O=C(O)CCCCC(CCSCc1ccccc1)SCc1ccccc1 (centres undefined) [CPI-613] + Cc1nc(NC(=O)N2CCC[C@H]2C(N)=O)sc1-c1ccnc(C(C)(C)C(F)(F)F)c1 [Alpelisib] (partner 2 µM)
Result: 0.639

* * *

Test system: LK-2
assay-explanation: relative viability (nuclei count vs DMSO), 5 days (fraction); higher = more cells survive
stated-conditions: first compound 1.265 µM
observed-property: relative viability

Task: Requested read-out relative viability, target or system LK-2, entry Cc1sc2c(c1C)C(c1ccc(Cl)cc1)=N[C@@H](CC(=O)OC(C)(C)C)c1nnc(C)n1-2 [JQ1] + CC1(C)CCC(c2ccc(Cl)cc2)=C(CN2CCN(c3ccc(C(=O)NS(=O)(=O)c4ccc(N[C@H](CCN5CCOCC5)CSc5ccccc5)c(S(=O)(=O)C(F)(F)F)c4)cc3)CC2)C1 [Navitoclax] (partner 0.5 µM)
Result: 0.255

Task: Short answer please: relative viability, LK-2, entry Cc1sc2c(c1C)C(c1ccc(Cl)cc1)=N[C@@H](CC(=O)OC(C)(C)C)c1nnc(C)n1-2 [JQ1] + Cc1cc(Nc2cc(N3CCN(C)CC3)nc(Sc3ccc(NC(=O)C4CC4)cc3)n2)n[nH]1 [Tozasertib] (partner 0.1 µM)
Result: 0.151

Task: # returns recorded relative viability (system: LK-2) for Cc1sc2c(c1C)C(c1ccc(Cl)cc1)=N[C@@H](CC(=O)OC(C)(C)C)c1nnc(C)n1-2 [JQ1] + Nc1nc2[nH]cc(CCc3ccc(C(=O)N[C@@H](CCC(=O)O)C(=O)O)cc3)c2c(=O)[nH]1 [Pemetrexed] (partner 0.2 µM)
Result: 0.16

Task: Fill in the recorded relative viability for this compound, with LK-2 as test system: Cc1sc2c(c1C)C(c1ccc(Cl)cc1)=N[C@@H](CC(=O)OC(C)(C)C)c1nnc(C)n1-2 [JQ1] + CS(=O)(=O)N1CCN(Cc2cc3nc(-c4cccc5[nH]ncc45)nc(N4CCOCC4)c3s2)CC1 [Pictilisib] (partner 1 µM)
Result: 0.223

Task: API: value(readout=relative viability, system=LK-2) for record Cc1sc2c(c1C)C(c1ccc(Cl)cc1)=N[C@@H](CC(=O)OC(C)(C)C)c1nnc(C)n1-2 [JQ1] + NC(=O)Nc1cc(-c2cccc(F)c2)sc1C(=O)N[C@H]1CCCNC1 [AZD7762] (partner 0.2 µM)
Result: 0.101

The values you see were collected from the supplement of paper PMC10307832.
